- SYSTEM_TESTED: T1, USP38, Q8NB14
- T1 chain: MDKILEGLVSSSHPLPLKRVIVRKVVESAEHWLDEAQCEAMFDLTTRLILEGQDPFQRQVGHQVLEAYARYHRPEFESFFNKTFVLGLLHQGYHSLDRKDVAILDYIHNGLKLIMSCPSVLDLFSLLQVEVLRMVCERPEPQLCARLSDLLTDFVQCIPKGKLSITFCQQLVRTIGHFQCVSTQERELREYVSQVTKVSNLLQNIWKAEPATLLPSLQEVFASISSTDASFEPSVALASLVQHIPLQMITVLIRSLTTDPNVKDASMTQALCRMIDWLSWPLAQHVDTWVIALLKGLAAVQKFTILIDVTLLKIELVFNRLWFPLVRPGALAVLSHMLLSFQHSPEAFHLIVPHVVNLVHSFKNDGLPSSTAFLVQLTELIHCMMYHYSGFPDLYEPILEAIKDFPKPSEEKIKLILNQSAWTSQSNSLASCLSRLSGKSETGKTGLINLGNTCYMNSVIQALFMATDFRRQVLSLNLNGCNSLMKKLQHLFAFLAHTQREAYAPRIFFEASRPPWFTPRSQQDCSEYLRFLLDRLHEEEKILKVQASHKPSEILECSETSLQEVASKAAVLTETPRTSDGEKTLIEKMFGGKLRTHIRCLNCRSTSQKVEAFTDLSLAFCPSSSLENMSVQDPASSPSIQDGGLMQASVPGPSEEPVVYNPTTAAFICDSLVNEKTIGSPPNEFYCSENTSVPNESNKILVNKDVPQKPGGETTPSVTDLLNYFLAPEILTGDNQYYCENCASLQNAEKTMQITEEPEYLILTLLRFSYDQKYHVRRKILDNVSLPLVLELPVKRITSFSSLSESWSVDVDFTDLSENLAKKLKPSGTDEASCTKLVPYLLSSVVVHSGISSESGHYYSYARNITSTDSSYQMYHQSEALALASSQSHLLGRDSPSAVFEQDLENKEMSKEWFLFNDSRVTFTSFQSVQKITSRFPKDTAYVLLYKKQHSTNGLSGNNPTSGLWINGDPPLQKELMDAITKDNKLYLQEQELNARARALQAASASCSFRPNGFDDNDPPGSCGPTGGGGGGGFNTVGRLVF
- ASSAY_EXPLANATION: median log2 fold change of GCK-ALFA target abundance (FLAG IP / Myc IP barcode read proportion) (log2 ratio); each designed protein is fused to an ALFA-tag nanobody in HEK293 cells to bring the named protein to FLAG-tagged glucokinase (GCK); Myc marks an untargeted standard; higher = target protein stabilised (more abundant)
- CONDITION_INFO: target protein: 3xFLAG-MCP-GCK-ALFA reporter; HEK293 landing pad (RPLP)
RECORDED_ENDPOINT: median log2 fold change
Answers are plain numbers.

Give one value of median log2 fold change per listed binder.
1. usp_38_diff_out_24_27_499 (protein) EEEKQKLLKELLKKFEEILKLSEKAVGADLATRIKLSSEIDEKLEEARKLAKELGDEEIEELVTKVEIAANIVLSGSEEAEEALKEIKKLVEELKKKIEE
2. usp_38_diff_out_14_2_85 (protein) AEEKIKKATEKTLKKLEEAIKLAKELKEEVKKDPSKAEKAREELFKKWDEVGDAVGELAKLLEENKEIPALNKEANEKVNEKLTELTKATLEALEELAEA
3. usp_38_diff_out_13_133_62 (protein) SAAEERRKEALKELEETEKKIEELLKKAKEALKEGKIEEAEKYVGEAAGLILKARSDLMAKTKDDPELRKEILKRLKELEKKLNELIDEVNEALKKKFLE
4. usp_38_diff_out_16_37_209 (protein) AEKVLEEFKKFMEEAIKRAEEIGRRARELEEEGADLEELERLLEELERLLDEAVKRLTEALEKVPEKIEELFAIYDEFADAAARAGAIIREAIRRARERA

[0.204, -0.606, 0.147, 0.0185]

src = the supplement of paper PMC12632987
